details: 292.15 K; 101.33 kPa; Liquid; Vibrating tube method
Entries and their mass density values follow.
Give your result in kg/m3 as a bare value.

>>> result_value("CCC(=O)[O-].C[NH2+]CCO [2-hydroxy-N-methylethanaminium propionate]")
1075.16

Record CC(C)C(=O)[O-].C[NH2+]CCO [2-hydroxy-N-methylethanaminium isobutyrate] , field mass density: 1047.16

Record C[NH2+]CCO.O=C[O-] [2-hydroxy-N-methylethanaminium formate] , field mass density: 1131.6

Record CCCC(=O)[O-].C[NH2+]CCO [N-methyl-2-hydroxyethylammonium butanoate] , field mass density: 1043.32

Record CCCCC(=O)[O-].C[NH2+]CCO [2-hydroxy-N-methylethanaminium pentanoate] , field mass density: 1020.28

Record CC(=O)[O-].C[NH2+]CCO [N-methyl-2-hydroxyethylammonium acetate] , field mass density: 1104.36

---

Entries and their mass density values follow.
details: 286.15 K; 101.33 kPa; Liquid; Vibrating tube method
Give your result in kg/m3 as a bare value.

>>> result_value("C[NH2+]CCO.O=C[O-] [2-hydroxy-N-methylethanaminium formate]")
1134.95
>>> result_value("CCC(=O)[O-].C[NH2+]CCO [2-hydroxy-N-methylethanaminium propionate]")
1079.09
>>> result_value("CCCCC(=O)[O-].C[NH2+]CCO [2-hydroxy-N-methylethanaminium pentanoate]")
1024.33

Record CC(C)C(=O)[O-].C[NH2+]CCO [2-hydroxy-N-methylethanaminium isobutyrate] , field mass density: 1050.98

Record CCCC(=O)[O-].C[NH2+]CCO [N-methyl-2-hydroxyethylammonium butanoate] , field mass density: 1047.35

Record CC(=O)[O-].C[NH2+]CCO [N-methyl-2-hydroxyethylammonium acetate] , field mass density: 1108.02

---

conditions: 332.41 K; 101.33 kPa; Liquid; Vibrating tube method
Entries and their mass density values follow.
Give your result in kg/m3 as a bare value.

>>> result_value("CC(=O)[O-].C[NH2+]CCO [N-methyl-2-hydroxyethylammonium acetate]")
1079.82
>>> result_value("CC(C)C(=O)[O-].C[NH2+]CCO [2-hydroxy-N-methylethanaminium isobutyrate]")
1020.78

Record CCCCC(=O)[O-].C[NH2+]CCO [2-hydroxy-N-methylethanaminium pentanoate] , field mass density: 992.768

Record CCCC(=O)[O-].C[NH2+]CCO [N-methyl-2-hydroxyethylammonium butanoate] , field mass density: 1015.78

Record CCC(=O)[O-].C[NH2+]CCO [2-hydroxy-N-methylethanaminium propionate] , field mass density: 1048.54

Record C[NH2+]CCO.O=C[O-] [2-hydroxy-N-methylethanaminium formate] , field mass density: 1109.34

---

settings: 295.4 K; 101.33 kPa; Liquid; Vibrating tube method
Entries and their mass density values follow.
Give your result in kg/m3 as a bare value.

Worked cases, mass density given:
>>> result_value("C[NH2+]CCO.O=C[O-] [2-hydroxy-N-methylethanaminium formate]")
1129.78
>>> result_value("CC(C)C(=O)[O-].C[NH2+]CCO [2-hydroxy-N-methylethanaminium isobutyrate]")
1045.11

Now for the molecule whose mass density we want.
Record CCCC(=O)[O-].C[NH2+]CCO [N-methyl-2-hydroxyethylammonium butanoate] , field mass density: 1041.12

---

settings: 299.65 K; 101.33 kPa; Liquid; Vibrating tube method
reported.endpoint: mass density (kg/m3)
Give your result in kg/m3 as a bare value.

Worked cases, mass density given:
>>> result_value("CCCC(=O)[O-].C[NH2+]CCO [N-methyl-2-hydroxyethylammonium butanoate]")
1038.22
>>> result_value("CCC(=O)[O-].C[NH2+]CCO [2-hydroxy-N-methylethanaminium propionate]")
1070.31

Now for the molecule whose mass density we want.
Record CC(C)C(=O)[O-].C[NH2+]CCO [2-hydroxy-N-methylethanaminium isobutyrate] , field mass density: 1042.41

---

Entries and their mass density values follow.
conditions: 305.9 K; 101.33 kPa; Liquid; Vibrating tube method
Numbers after ± are expanded uncertainties.

>>> result_value("CCCCC(=O)[O-].C[NH2+]CCO [2-hydroxy-N-methylethanaminium pentanoate]")
"1011.03 ± 2.1 kg/m3"
>>> result_value("CCC(=O)[O-].C[NH2+]CCO [2-hydroxy-N-methylethanaminium propionate]")
"1066.27 ± 2.2 kg/m3"

Record CCCC(=O)[O-].C[NH2+]CCO [N-methyl-2-hydroxyethylammonium butanoate] , field mass density: 1034.04 ± 2.2 kg/m3

---

settings: 338.15 K; 101.33 kPa; Liquid; Vibrating tube method
reported.endpoint: mass density (kg/m3)
Give your result in kg/m3 as a bare value.

Worked cases, mass density given:
>>> result_value("CC(C)C(=O)[O-].C[NH2+]CCO [2-hydroxy-N-methylethanaminium isobutyrate]")
1016.84
>>> result_value("CCCC(=O)[O-].C[NH2+]CCO [N-methyl-2-hydroxyethylammonium butanoate]")
1011.69

Now for the compound whose mass density we want.
Record CCC(=O)[O-].C[NH2+]CCO [2-hydroxy-N-methylethanaminium propionate] , field mass density: 1044.58

---

details: 323.15 K; 101.33 kPa; Liquid
With a cut-off of 50 mPa·s, any viscosity strictly below it is called true (1); any viscosity meeting it or above is called false (0).

>>> label("C[NH2+]CCO.O=C[O-] [2-hydroxy-N-methylethanaminium formate]")
"true (1)"

Below 50 mPa·s on viscosity? Entry CC(C)C(=O)[O-].C[NH2+]CCO [2-hydroxy-N-methylethanaminium isobutyrate]
true (1)

Below 50 mPa·s on viscosity? Entry CCCCC(=O)[O-].C[NH2+]CCO [2-hydroxy-N-methylethanaminium pentanoate]
false (0)

Below 50 mPa·s on viscosity? Entry CC(=O)[O-].C[NH2+]CCO [N-methyl-2-hydroxyethylammonium acetate]
true (1)

Below 50 mPa·s on viscosity? Entry CCCC(=O)[O-].C[NH2+]CCO [N-methyl-2-hydroxyethylammonium butanoate]
false (0)

---

conditions: 319.65 K; 101.33 kPa; Liquid; Pulse-echo method
reported.endpoint: speed of sound (m/s)
Give your result in m/s as a bare value.

>>> result_value("CCCCC(=O)[O-].C[NH2+]CCO [2-hydroxy-N-methylethanaminium pentanoate]")
1482.3
>>> result_value("CCC(=O)[O-].C[NH2+]CCO [2-hydroxy-N-methylethanaminium propionate]")
1626.5

Now for the compound whose speed of sound we want.
Record CC(C)C(=O)[O-].C[NH2+]CCO [2-hydroxy-N-methylethanaminium isobutyrate] , field speed of sound: 1550.6

---

settings: 287.65 K; 101.33 kPa; Liquid; Vibrating tube method
Numbers after ± are expanded uncertainties.
reported.endpoint: mass density
Your reply should be a number followed by the unit it is expressed in.

Worked cases, mass density given:
>>> result_value("CCC(=O)[O-].C[NH2+]CCO [2-hydroxy-N-methylethanaminium propionate]")
"1078.11 ± 2.2 kg/m3"
>>> result_value("CCCC(=O)[O-].C[NH2+]CCO [N-methyl-2-hydroxyethylammonium butanoate]")
"1046.34 ± 2.2 kg/m3"

Now for the compound whose mass density we want.
Record C[NH2+]CCO.O=C[O-] [2-hydroxy-N-methylethanaminium formate] , field mass density: 1134.11 ± 2.2 kg/m3

---

details: 317.4 K; 101.33 kPa; Liquid; Pulse-echo method
reported.endpoint: speed of sound (m/s)
Give your result in m/s as a bare value.

Worked cases, speed of sound given:
>>> result_value("CC(C)C(=O)[O-].C[NH2+]CCO [2-hydroxy-N-methylethanaminium isobutyrate]")
1557
>>> result_value("CCCC(=O)[O-].C[NH2+]CCO [N-methyl-2-hydroxyethylammonium butanoate]")
1554.3
>>> result_value("C[NH2+]CCO.O=C[O-] [2-hydroxy-N-methylethanaminium formate]")
1777.8

Now for the compound whose speed of sound we want.
Record CCCCC(=O)[O-].C[NH2+]CCO [2-hydroxy-N-methylethanaminium pentanoate] , field speed of sound: 1489.2

---

Entries and their mass density values follow.
details: 318.65 K; 101.33 kPa; Liquid; Vibrating tube method
Give your result in kg/m3 as a bare value.

Record CCCCC(=O)[O-].C[NH2+]CCO [2-hydroxy-N-methylethanaminium pentanoate] , field mass density: 1002.35

Record CCC(=O)[O-].C[NH2+]CCO [2-hydroxy-N-methylethanaminium propionate] , field mass density: 1057.84

Record CC(=O)[O-].C[NH2+]CCO [N-methyl-2-hydroxyethylammonium acetate] , field mass density: 1088.41

---

details: 335.66 K; 101.33 kPa; Liquid; Pulse-echo method
Entries and their speed of sound values follow.
Give your result in m/s as a bare value.

>>> result_value("C[NH2+]CCO.O=C[O-] [2-hydroxy-N-methylethanaminium formate]")
1742.9
>>> result_value("CC(C)C(=O)[O-].C[NH2+]CCO [2-hydroxy-N-methylethanaminium isobutyrate]")
1504.7
>>> result_value("CCC(=O)[O-].C[NH2+]CCO [2-hydroxy-N-methylethanaminium propionate]")
1578.2

Record CCCC(=O)[O-].C[NH2+]CCO [N-methyl-2-hydroxyethylammonium butanoate] , field speed of sound: 1497
